# ASSAY_OVERVIEW: melting temperature; fluorescence melt of hairpins on a sequencing array, two-state fit, raised by 9.35 °C to match UV melts
# EXPERIMENTAL_PARAMETERS: sodium 0.088 M
Hi! Could you tag entries with Tm below 40 °C as criterion met, and those at or above as criterion not met? Much appreciated.

INSERT INTO measurements (sequence_record, category_label) VALUES
  ('GAGTCGGCGAAAGCCCTC (((..(((....))))))', 'criterion met'),
  ('GGGTTCGGAAACAAACCC (((((.(....).)))))', 'criterion not met'),
  ('GACCACGAAAGTGATGTC ((((((....)))..)))', 'criterion met'),
  ('GTCTGAACGAAAGTTGAC (((..(((....))))))', 'criterion met'),
  ('GCAATGCGAAAGCAGCGC ((..(((....)))..))', 'criterion not met'),
  ('GATCTGGCACAGATC ((((((...))))))', 'criterion not met'),
  ('GGGTTGGGAAACCAGCCC (((.(((....))).)))', 'criterion not met'),
  ('GTATCCACGAAAGTGTAC (((..(((....))))))', 'criterion met'),
  ('GCAAGGAAACTTGC (((((....)))))', 'criterion not met'),
  ('GTCACCCCGAAAGGGGAC (((..(((....))))))', 'criterion not met'),
  ('GATCTCACTAGAGATC ((((((....))))))', 'criterion not met'),
  ('GCCCTGCGAAAGCCGAGC ((.(.((....)).).))', 'criterion met');

---

# ASSAY_OVERVIEW: folding enthalpy; higher = less favourable; fluorescence melt of hairpins on a sequencing array, two-state fit
# EXPERIMENTAL_PARAMETERS: sodium 0.088 M
# folding enthalpy values compiled below
PARAMETER: folding enthalpy (kcal/mol)

INSERT INTO results (sequence_record, readout_units, assay_result) VALUES
  ('GAGTACGAAAGTAGCCTC ((((((....)))..)))', 'kcal/mol', -11.8),
  ('GCTGAGGGAAACTTCGGC ((.((.(....).)).))', 'kcal/mol', -29),
  ('GGCACCGAAAGGTACGCC ((((((....)))..)))', 'kcal/mol', -27.3),
  ('GCGTCCGAAAGGAATCGC ((((((....)))..)))', 'kcal/mol', -22.6),
  ('GTACCCGAAAGGGACTAC ((((((....)))..)))', 'kcal/mol', -14.3),
  ('GGTTGACGAAAGTCTACC (((.(((....))).)))', 'kcal/mol', -33.1),
  ('GGGAGTGGAAACACCCCC (((.(((....))).)))', 'kcal/mol', -19),
  ('GGGCAGCGAAAGCTCCC (((.(((....))))))', 'kcal/mol', -20.3),
  ('GTCCCCGAAAGGGTGGAC ((((((....)))..)))', 'kcal/mol', -14.8),
  ('GTCATGGGAAACCGTGAC ((((.((....)).))))', 'kcal/mol', -42.3),
  ('GAAAAGGAAACTTTTC ((((((....))))))', 'kcal/mol', -25.2),
  ('GATCCCTCTTGGGATC ((((((....))))))', 'kcal/mol', -36.8);

---

# ASSAY_OVERVIEW: melting temperature; fluorescence melt of hairpins on a sequencing array, two-state fit, raised by 9.35 °C to match UV melts
# EXPERIMENTAL_PARAMETERS: sodium 0.088 M
Recorded Tm values for a group of sequences are listed next.
PARAMETER: Tm (°C)

INSERT INTO assay_data (sequence_record, parameter, assay_result) VALUES
  ('GCGGATAGCCGC ((((....))))', 'Tm', 54.9),
  ('GGTTGAGGAAACTTGACC (((..((....))..)))', 'Tm', 32.1),
  ('GTTCAGGAAACTGAAC ((((((....))))))', 'Tm', 53.8),
  ('GTTGGGTCGAAAGACAAC (((..(((....))))))', 'Tm', 38.1),
  ('GATCTATTATTAGATC ((((((....))))))', 'Tm', 43.2),
  ('GTTAGCGGAAACGTTAAC ((((.((....)).))))', 'Tm', 44.2);

---

# ASSAY_OVERVIEW: folding enthalpy; higher = less favourable; fluorescence melt of hairpins on a sequencing array, two-state fit
# EXPERIMENTAL_PARAMETERS: sodium 0.088 M
PARAMETER: folding enthalpy (kcal/mol)

INSERT INTO assay_data (sequence_record, parameter, assay_result) VALUES
  ('GCCTATGGAAACATGGGC (((.(((....))).)))', 'folding enthalpy', -46.6),
  ('GCTTTGCGAAAGCATCGC ((..(((....)))..))', 'folding enthalpy', -13.7),
  ('GTAGGTGGAAACGTCTAC ((((..(....)..))))', 'folding enthalpy', -16.8),
  ('CGAGCGGAAACGCTTTCG ((((((....)))..)))', 'folding enthalpy', -11.8),
  ('GACCGCGGAAACACGGCC (.(((.(....).))).)', 'folding enthalpy', -22.2),
  ('GGCCAGGGAAACCCGACC ((.(.((....)).).))', 'folding enthalpy', -11.9);

---

# ASSAY_OVERVIEW: melting temperature; fluorescence melt of hairpins on a sequencing array, two-state fit, raised by 9.35 °C to match UV melts
# EXPERIMENTAL_PARAMETERS: sodium 0.088 M
Please enter Satisfied where Tm is greater than or equal to 50 °C, and Not satisfied where it is lower.

INSERT INTO assay_data (sequence_record, category_label) VALUES
  ('GCGGAGGTCCGC ((((....))))', 'Satisfied'),
  ('GTACAGAAATGTAC (((((....)))))', 'Not satisfied'),
  ('GCGCTCGAAAGAGGCCGC ((((((....)))..)))', 'Not satisfied'),
  ('GCTGACGAAAGTCACAGC ((((((....)))..)))', 'Not satisfied'),
  ('CGAACGGAAACGTATCG ((((((....))).)))', 'Not satisfied'),
  ('GCGCTCGGAAACGGGTGC ((.(.((....)).).))', 'Satisfied'),
  ('GATCGGAGACCCGATC ((((((....))))))', 'Satisfied'),
  ('GATCGCCTGAGCGATC ((((((....))))))', 'Satisfied'),
  ('GTGTCCTCGAAAGAGCAC (((..(((....))))))', 'Not satisfied'),
  ('GCTGGACGAAAGTCTAGC (((.(((....))).)))', 'Satisfied'),
  ('GCGTCGGAACGC ((((....))))', 'Satisfied'),
  ('GTATCCGAAAGGATTTAC ((((((....)))..)))', 'Not satisfied'),
  ('GATCGAACAGTCGATC ((((((....))))))', 'Not satisfied'),
  ('GATCACCATGTGATC ((((((...))))))', 'Satisfied'),
  ('GATCAACAGCTTGATC ((((((....))))))', 'Not satisfied'),
  ('GTAACGGGAAACCATTAC ((((.((....)).))))', 'Not satisfied'),
  ('GTGTAGCGAAAGCTGCAC (((.(((....))).)))', 'Satisfied'),
  ('GATCCACTTTGGATC ((((((...))))))', 'Satisfied'),
  ('GACGAGCGAAAGCTGTC (((.(((....))))))', 'Satisfied'),
  ('GATCTGTCAGCAGATC ((((((....))))))', 'Satisfied'),
  ('GATGACGAAAGTCTCATC ((((((....)))..)))', 'Not satisfied'),
  ('GATCTACTGTAGATC ((((((...))))))', 'Not satisfied'),
  ('GTCTGGGGAAACCCAAAC ((.((((....)))).))', 'Not satisfied'),
  ('GTTTCACGAAAGTGTAAC (((.(((....))).)))', 'Not satisfied'),
  ('GCACCCGAAAGGGATGC ((((((....))).)))', 'Satisfied'),
  ('GATCGTTTATACGATC ((((((....))))))', 'Satisfied'),
  ('GAGGATGAAAATCCTC ((((((....))))))', 'Satisfied'),
  ('CGTTCGGAAACGACTACG ((((((....)))..)))', 'Not satisfied'),
  ('GACAGCGAAAGCTTGGTC ((((((....)))..)))', 'Not satisfied'),
  ('GAGGACGGAAACATCCTC (((((.(....).)))))', 'Not satisfied'),
  ('GGTAAGGGAAACCTTGCC ((.((((....)))).))', 'Not satisfied'),
  ('GCCTATGGAAACACAGGC ((((.((....)).))))', 'Not satisfied'),
  ('GGTGTTGGAAACAACGCC ((.((((....)))).))', 'Satisfied'),
  ('GCGTCAGGAAACTGATGC ((.((((....)))).))', 'Satisfied'),
  ('GTATAGCGAAAGCTTTAC (((.(((....))).)))', 'Not satisfied'),
  ('GCGTTTCTACGC ((((....))))', 'Satisfied'),
  ('GCGTACGGAAACGTGTGC ((..(((....)))..))', 'Not satisfied'),
  ('GATCGCGAAAGCGGATC ((((((....))).)))', 'Satisfied'),
  ('GATCGGAAGCCGATC ((((((...))))))', 'Satisfied'),
  ('GATCATGGAAATGATC ((((((....))))))', 'Satisfied'),
  ('GGGTCCGAAAGGAACCCC ((((((....)))..)))', 'Satisfied'),
  ('GTTATGCGAAAGCACAAC (((.(((....))).)))', 'Not satisfied'),
  ('GCGAAATTTCGC ((((....))))', 'Satisfied'),
  ('GTATTTCCGAAAGGATAC (((..(((....))))))', 'Not satisfied'),
  ('GGTAGTGGAAACACTATC (.(((((....))))).)', 'Not satisfied');
